Kindly supply the reported pKi values for the records listed here.
Biological target: α5β3γ2 GABAA receptors (Homo sapiens, UniProt P18507+P31644)
Sequence (P31644 32-462): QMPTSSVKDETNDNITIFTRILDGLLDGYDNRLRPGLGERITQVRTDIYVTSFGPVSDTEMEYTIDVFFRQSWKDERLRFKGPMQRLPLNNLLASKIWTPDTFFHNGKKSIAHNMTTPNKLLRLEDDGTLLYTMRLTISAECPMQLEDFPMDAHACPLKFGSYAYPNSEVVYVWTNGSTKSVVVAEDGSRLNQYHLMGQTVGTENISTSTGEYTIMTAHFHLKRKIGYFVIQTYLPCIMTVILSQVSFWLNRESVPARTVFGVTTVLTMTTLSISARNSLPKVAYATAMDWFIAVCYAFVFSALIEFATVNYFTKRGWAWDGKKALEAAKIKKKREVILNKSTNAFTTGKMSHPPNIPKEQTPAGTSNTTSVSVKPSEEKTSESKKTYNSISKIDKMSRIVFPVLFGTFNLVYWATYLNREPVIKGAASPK
Sequence (P28472 26-473 partner): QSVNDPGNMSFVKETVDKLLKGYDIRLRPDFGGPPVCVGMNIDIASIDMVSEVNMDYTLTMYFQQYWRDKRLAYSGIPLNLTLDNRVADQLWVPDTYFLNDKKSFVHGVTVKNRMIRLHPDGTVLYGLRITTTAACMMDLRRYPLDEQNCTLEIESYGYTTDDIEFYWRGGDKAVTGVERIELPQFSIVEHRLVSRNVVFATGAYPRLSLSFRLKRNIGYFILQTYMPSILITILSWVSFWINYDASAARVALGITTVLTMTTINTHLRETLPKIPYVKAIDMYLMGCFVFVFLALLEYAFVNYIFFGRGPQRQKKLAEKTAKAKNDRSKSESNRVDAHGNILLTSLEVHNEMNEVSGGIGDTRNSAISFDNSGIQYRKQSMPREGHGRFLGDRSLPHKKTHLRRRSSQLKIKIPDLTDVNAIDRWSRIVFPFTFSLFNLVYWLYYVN
Sequence (P18507 40-475): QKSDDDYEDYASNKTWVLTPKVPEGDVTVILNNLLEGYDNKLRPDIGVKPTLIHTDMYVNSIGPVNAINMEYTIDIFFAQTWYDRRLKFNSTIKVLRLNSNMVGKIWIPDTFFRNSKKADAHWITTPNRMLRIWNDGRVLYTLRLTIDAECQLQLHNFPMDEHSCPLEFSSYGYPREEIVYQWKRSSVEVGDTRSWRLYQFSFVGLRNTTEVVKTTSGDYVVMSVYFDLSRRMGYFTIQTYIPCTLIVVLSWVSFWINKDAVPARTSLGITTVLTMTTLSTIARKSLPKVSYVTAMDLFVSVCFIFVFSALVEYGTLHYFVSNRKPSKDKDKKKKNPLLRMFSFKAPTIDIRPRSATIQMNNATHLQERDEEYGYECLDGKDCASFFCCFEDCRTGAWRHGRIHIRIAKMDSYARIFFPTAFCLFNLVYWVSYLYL
Experiment: [3H]Ro15-1788 binding, membranes of Ltk cells stably expressing α5β3γ2 GABAA receptors
Settings: ranges; inhibition of [3H]Ro15-1788 binding
pKi: −log10 of the molar value.

INPUT: Consider the molecule shown here: `C#Cc1ccc2c(c1)-c1nnc(COC)n1Cc1c(C3=N[C@H](CC(C)C)CO3)ncn1-2` What is its recorded pKi?
OUTPUT: > 7.00

INPUT: Consider the molecule shown here: `Cc1nc(-c2ncn3c2Cc2c(Cc4ccc(F)cc4)nnn2-c2cc(C(F)(F)F)ccc2-3)no1` What is its recorded pKi?
OUTPUT: > 7.00

INPUT: Consider the molecule shown here: `COCc1nnc2n1Cc1c(C#Cc3cncc(OC)c3)ncn1-c1ccc(OC)cc1-2` What is its recorded pKi?
OUTPUT: > 7.00

INPUT: Consider the molecule shown here: `COCc1nnc2n1Cc1c(C#Cc3ccc(OC)cn3)ncn1-c1ccc(OC)cc1-2` What is its recorded pKi?
OUTPUT: > 7.00

INPUT: Consider the molecule shown here: `COCc1nnc2n1Cc1c(C#Cc3c[nH]nc3OC)ncn1-c1ccc(Cl)cc1-2` What is its recorded pKi?
OUTPUT: > 7.00

INPUT: Consider the molecule shown here: COc1ccc2c(c1)-n1nncc1Cc1c(C3=NCC(c4ccncc4)O3)ncn1-2 (stereo not drawn) What is its recorded pKi?
OUTPUT: > 7.00

INPUT: Consider the molecule shown here: `Cc1noc(-c2ncn3c2Cc2cnnn2-c2cc(Br)ccc2-3)n1` What is its recorded pKi?
OUTPUT: > 7.00

INPUT: Consider the molecule shown here: `COCc1nnc2n1Cc1c(C#Cc3cnc(C)cn3)ncn1-c1ccc(OC)cc1-2` What is its recorded pKi?
OUTPUT: > 7.00

INPUT: Consider the molecule shown here: `COCc1nnc2n1Cc1c(C#Cc3cncnc3)ncn1-c1ccc(Cl)cc1-2` What is its recorded pKi?
OUTPUT: > 7.00

INPUT: Consider the molecule shown here: `COCc1nnc2n1Cc1c(C#Cc3nc(C)cs3)ncn1-c1ccc(Cl)cc1-2` What is its recorded pKi?
OUTPUT: > 7.00

INPUT: Consider the molecule shown here: `Clc1ccc2c(c1)-c1nnc(Oc3ccccc3)n1Cc1c(C3=N[C@H](c4ccccc4)CO3)ncn1-2` What is its recorded pKi?
OUTPUT: > 7.00

INPUT: Consider the molecule shown here: `COCc1nnc2n1Cc1c(-c3nc(C)no3)ncn1-c1ccc(-c3ccncc3)cc1-2` What is its recorded pKi?
OUTPUT: < 6.00

INPUT: Consider the molecule shown here: `COCc1nnc2n1Cc1c(C#Cc3cnc(OC)c(C)c3)ncn1-c1ccc(Cl)cc1-2` What is its recorded pKi?
OUTPUT: > 7.00

INPUT: Consider the molecule shown here: `COCc1nnc2n1Cc1c(C#CC(C)(C)C)ncn1-c1ccc(Cl)cc1-2` What is its recorded pKi?
OUTPUT: > 7.00

INPUT: Consider the molecule shown here: `COCc1nnc2n1Cc1c(C#Cc3cccc(OC)n3)ncn1-c1ccc(OC)cc1-2` What is its recorded pKi?
OUTPUT: > 7.00

INPUT: Consider the molecule shown here: `COCc1nnc2n1Cc1c(C#Cc3ccc(OC)nn3)ncn1-c1ccc(OC)cc1-2` What is its recorded pKi?
OUTPUT: > 7.00

INPUT: Consider the molecule shown here: COc1cccc(C2CN=C(c3ncn4c3Cc3cnnn3-c3cc(Cl)ccc3-4)O2)n1 (stereo not drawn) What is its recorded pKi?
OUTPUT: > 7.00

INPUT: Consider the molecule shown here: `Fc1cccc(Cc2nnn3c2Cc2c(-c4nc(-c5ccccc5)no4)ncn2-c2ccc(Cl)cc2-3)c1` What is its recorded pKi?
OUTPUT: 6.00 to 7.00

INPUT: Consider the molecule shown here: `COCc1nnc2n1Cc1c(C#Cc3cnc(OC)nc3)ncn1-c1ccc(OC)cc1-2` What is its recorded pKi?
OUTPUT: 6.00 to 7.00

INPUT: Consider the molecule shown here: `COCc1nnc2n1Cc1c(C#Cc3ccc(Cl)cn3)ncn1-c1ccc(OC)cc1-2` What is its recorded pKi?
OUTPUT: > 7.00

INPUT: Consider the molecule shown here: `COCc1nnc2n1Cc1c(C#Cc3ccc(OC)nc3)ncn1-c1ccc(OC)cc1-2` What is its recorded pKi?
OUTPUT: > 7.00

INPUT: Consider the molecule shown here: `Cc1nnc(-c2ncn3c2Cc2cnnn2-c2cc(Cl)ccc2-3)o1` What is its recorded pKi?
OUTPUT: > 7.00

INPUT: Consider the molecule shown here: `COCc1nnc2n1Cc1c(C#Cc3cccc(C)n3)ncn1-c1ccc(OC)cc1-2` What is its recorded pKi?
OUTPUT: > 7.00

INPUT: Consider the molecule shown here: `COc1ccc(C#Cc2ncn3c2Cc2cnnn2-c2cc(OC(F)(F)F)ccc2-3)cc1` What is its recorded pKi?
OUTPUT: > 7.00

INPUT: Consider the molecule shown here: `Cc1nc(-c2ncn3c2Cc2cnnn2-c2cc(Cl)ccc2-3)no1` What is its recorded pKi?
OUTPUT: > 7.00

INPUT: Consider the molecule shown here: `Fc1ccc(Cc2nnn3c2Cc2c(-c4ncco4)ncn2-c2ccc(OC(F)(F)F)cc2-3)cc1` What is its recorded pKi?
OUTPUT: 6.00 to 7.00

INPUT: Consider the molecule shown here: `COCc1nnc2n1Cc1c(C#Cc3c[nH]nc3OC)ncn1-c1ccc(OC)cc1-2` What is its recorded pKi?
OUTPUT: > 7.00

INPUT: Consider the molecule shown here: `COCc1nnc2n1Cc1c(C#Cc3ccc(OC(F)(F)F)cn3)ncn1-c1ccc(OC)cc1-2` What is its recorded pKi?
OUTPUT: > 7.00

INPUT: Consider the molecule shown here: `COCc1nnc2n1Cc1c(C#Cc3ccc(OCC4CC4)nc3)ncn1-c1ccc(Cl)cc1-2` What is its recorded pKi?
OUTPUT: > 7.00

INPUT: Consider the molecule shown here: `COc1ccc([C@@H]2COC(c3ncn4c3Cc3cnnn3-c3cc(Cl)ccc3-4)=N2)cc1` What is its recorded pKi?
OUTPUT: > 7.00

INPUT: Consider the molecule shown here: `COc1ccc(C#Cc2ncn3c2Cc2cnnn2-c2cc(OC)ccc2-3)nc1` What is its recorded pKi?
OUTPUT: > 7.00

INPUT: Consider the molecule shown here: `CC(C)c1nc(-c2ncn3c2Cc2cnnn2-c2cc(Cl)ccc2-3)no1` What is its recorded pKi?
OUTPUT: > 7.00

INPUT: Consider the molecule shown here: `COCc1nnc2n1Cc1c(C#Cc3cnc(C)[nH]3)ncn1-c1ccc(Cl)cc1-2` What is its recorded pKi?
OUTPUT: > 7.00
